# Assay System: S1P1 (Homo sapiens)
# Sequence (P21453 whole entry): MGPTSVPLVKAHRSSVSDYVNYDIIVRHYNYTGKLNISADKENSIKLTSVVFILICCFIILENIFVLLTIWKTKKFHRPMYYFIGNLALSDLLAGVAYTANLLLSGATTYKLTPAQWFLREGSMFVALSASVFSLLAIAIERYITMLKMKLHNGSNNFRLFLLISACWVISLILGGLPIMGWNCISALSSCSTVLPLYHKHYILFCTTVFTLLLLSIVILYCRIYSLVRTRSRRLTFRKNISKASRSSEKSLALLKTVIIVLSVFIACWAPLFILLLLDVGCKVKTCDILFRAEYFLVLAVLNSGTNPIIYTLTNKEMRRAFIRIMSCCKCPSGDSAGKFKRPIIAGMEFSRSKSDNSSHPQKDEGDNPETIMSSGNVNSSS
# Test Method Notes: CNG cAMP Assay (Assay 1)
# Assay type: cell-based
# Design: host or cells: HEK293 cells expressing the CNG channel
# Experimental Conditions: read-out: Assay 1 EC50
pEC50: −log10 of the molar value.
Quantity: pEC50

O=C(O)CNCc1ccc(-c2noc(-c3cn4cc(C(F)(F)F)cc(Cl)c4n3)n2)c(Cl)c1 [Example 120] : 6.00 to 6.30
NCC(O)COc1ccc(-c2noc(-c3cn4cc(C(F)(F)F)cc(Cl)c4n3)n2)c(Cl)c1 (centres unmarked) [Example 223] : ≥ 7.00

Recorded pEC50 of Fc1ccc(-c2noc(-c3cn4cc(C(F)(F)F)cc(Cl)c4n3)n2)c(Cl)c1 [Example 274] , please.
6.30 to 7.00

What about O=C(O)C1CC1c1ccc(-c2noc(-c3cn4cc(C(F)(F)F)cc(Cl)c4n3)n2)c(C(F)(F)F)c1 (centres unmarked) [Entry 70] ?
6.30 to 7.00

Query Oc1cc(Cl)c(-c2nnc(-c3cn4cc(C(F)(F)F)cc(Cl)c4n3)s2)cc1Cl [Example 224] next
≥ 7.00

Check O=C(O)C1CC1c1cc(Cl)c(-c2noc(-c3cn4cc(C(F)(F)F)cc(Cl)c4n3)n2)cc1F (centres unmarked) [Example 85] too.
≥ 7.00

And C[C@H](CO)Oc1cc(Cl)c(-c2noc(-c3cn4cc(C(F)(F)F)cc(Cl)c4n3)n2)cc1F [Example 93] ?
≥ 7.00

Try this compound too: NC(=O)C1CC1c1ccc(-c2noc(-c3cn4cc(C(F)(F)F)cc(Cl)c4n3)n2)c(Cl)c1 (centres unmarked) [Entry 72]
≥ 7.00
